- TARGET SYSTEM: UniProtKB P08912
- Sequence (P08912 whole entry): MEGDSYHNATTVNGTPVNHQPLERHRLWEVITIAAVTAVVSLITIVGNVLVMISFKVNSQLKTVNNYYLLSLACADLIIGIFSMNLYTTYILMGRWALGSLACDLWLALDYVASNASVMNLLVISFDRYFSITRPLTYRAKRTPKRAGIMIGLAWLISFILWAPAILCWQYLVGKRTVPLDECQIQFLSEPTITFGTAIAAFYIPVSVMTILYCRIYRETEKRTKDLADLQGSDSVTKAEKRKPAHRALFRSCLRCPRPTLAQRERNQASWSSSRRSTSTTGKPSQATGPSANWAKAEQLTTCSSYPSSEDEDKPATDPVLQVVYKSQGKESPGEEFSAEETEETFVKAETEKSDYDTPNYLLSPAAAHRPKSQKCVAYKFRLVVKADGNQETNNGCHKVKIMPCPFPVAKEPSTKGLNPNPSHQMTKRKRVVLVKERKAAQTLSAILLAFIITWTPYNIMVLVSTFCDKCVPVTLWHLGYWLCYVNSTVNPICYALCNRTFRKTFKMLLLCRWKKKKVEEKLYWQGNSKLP
pKi: −log10 of the molar value.
# key: entry, value: pKi

MOLECULE: C[C@@H]1O[C@H]([C@H]2CCC[N+]2(C)C)CS1
TARGET SYSTEM: UniProtKB P08912
pKi: 4.61
//
MOLECULE: C[C@@H]1O[C@H](C[N+](C)(C)C)CS1
TARGET SYSTEM: UniProtKB P08912
pKi: 4.88
//
MOLECULE: C[C@@H]1O[C@H]([C@@H]2CCC[N+]2(C)C)C[S+]1[O-] (stereo in doubt; 11)
TARGET SYSTEM: UniProtKB P08912
pKi: 4.47
//
MOLECULE: C[C@H]1O[C@@H]([C@H]2CCC[N+]2(C)C)CS1
TARGET SYSTEM: UniProtKB P08912
pKi: 4.97
//
MOLECULE: C[C@H]1OC[C@@H]([C@@H]2CCC[N+]2(C)C)O1
TARGET SYSTEM: UniProtKB P08912
pKi: 4.64
//
MOLECULE: C[C@@H]1O[C@H]([C@@H]2CCC[N+]2(C)C)CS1
TARGET SYSTEM: UniProtKB P08912
pKi: 4.63
//
MOLECULE: C[C@H]1COC[C@@H](C[N+](C)(C)C)O1
TARGET SYSTEM: UniProtKB P08912
pKi: 5.43
//
MOLECULE: C[C@H]1OC[C@@H]([C@H]2CCC[N+]2(C)C)O1
TARGET SYSTEM: UniProtKB P08912
pKi: 4.28
//
MOLECULE: C[C@H]1OC[C@@H](C[N+](C)(C)C)O1
TARGET SYSTEM: UniProtKB P08912
pKi: 4.66
//
MOLECULE: C[C@H]1O[C@@H]([C@@H]2CCC[N+]2(C)C)CS1
TARGET SYSTEM: UniProtKB P08912
pKi: 4.99
//
MOLECULE: Cc1nccn1CC#CCOc1ccon1
TARGET SYSTEM: UniProtKB P08912
pKi: 8.21
//
MOLECULE: C[C@@H]1O[C@H]([C@@H]2CCC[N+]2(C)C)C[S+]1[O-] (stereo in doubt; 12)
TARGET SYSTEM: UniProtKB P08912
pKi: 4.24
